Procedure Details: Determination of the solubility
Assay type: physicochemical
Experimental Setup: aqueous buffer, kinetic from dmso stock; PBS buffer pH 6.5, 20° C., 24 hours shaking, from DMSO solution
# solubility at 24 h annotations
Give just the numeric value; µg/mL need not be written.

O=C(Cn1nc(-c2ccc(Cl)cc2)n(C[C@H](O)C(F)(F)F)c1=O)NC(C(=O)NCCO)c1cccc(OC(F)(F)F)c1 (stereo partly drawn) : 100
COCCn1c(-c2ccc(Cl)s2)nn(CC(=O)NC(C(=O)NC(C)(C)C(=O)O)c2cccc(C(F)(F)F)c2)c1=O (racemic) : 360
O=C(Cn1nc(-c2ccc(Cl)cc2)n(C2CC2)c1=O)NC(C(=O)NC1(C(=O)O)CC1)c1cccc(C(F)(F)F)c1 (racemic) : 340
CC(C)(NC(=O)[C@](C)(NC(=O)Cn1nc(-c2ccc(Cl)cc2)n(C[C@H](O)C(F)(F)F)c1=O)c1cccc(C(F)(F)F)c1)C(=O)O : 360
O=C(C[C@H](NC(=O)Cn1nc(-c2ccc(Cl)cc2)n(C[C@H](O)C(F)(F)F)c1=O)c1cccc(C(F)(F)F)c1)NCCO : 400

Kindly consider the entry below.
Write down solubility at 24 h measured for item CC(C)(NC(=O)C(NC(=O)Cn1nc(-c2ccc(Cl)cc2)n(/C=C/C(F)(F)F)c1=O)c1ccccc1C(F)(F)F)C(N)=O (racemic)
110

====

Target: human V1a receptor (Homo sapiens, UniProt P37288)
Sequence (P37288 whole entry): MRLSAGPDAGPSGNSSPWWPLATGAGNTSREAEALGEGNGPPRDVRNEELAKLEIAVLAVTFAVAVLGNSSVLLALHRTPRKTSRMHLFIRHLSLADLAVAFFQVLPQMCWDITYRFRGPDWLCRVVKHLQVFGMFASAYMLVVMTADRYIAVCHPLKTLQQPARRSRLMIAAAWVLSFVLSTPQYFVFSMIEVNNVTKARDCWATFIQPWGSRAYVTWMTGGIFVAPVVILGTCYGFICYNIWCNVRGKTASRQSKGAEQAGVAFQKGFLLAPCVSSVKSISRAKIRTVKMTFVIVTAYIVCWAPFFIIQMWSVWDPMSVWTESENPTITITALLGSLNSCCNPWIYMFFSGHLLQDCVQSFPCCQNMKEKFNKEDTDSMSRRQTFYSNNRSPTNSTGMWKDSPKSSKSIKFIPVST
Procedure Details: Cellular in vitro assay for determining the vasopressin receptor activity (aequorin luminescence, recombinant CHO cells), human V1a
Experimental Setup: CHO cells expressing aequorin, transfected with human V1a receptor; agonist [Arg8]-vasopressin; read-out: IC50 hV1a
Text: B-1. Cellular In Vitro Assay for Determining the Vasopressin Receptor Activity The identification of agonists and antagonists of the V1a and V2 vasopressin receptors from humans and rats and also the quantification of the activity of the substances described here takes place using recombinant cell lines. These cells derive originally from a hamster's ovary epithelial cell (Chinese Hamster Ovary, CHO K1, ATCC: American Type Culture Collection, Manassas, Va. 20108, USA). […]
# IC50 annotations
Give just the numeric value; nM need not be written.

CC(C)(NC(=O)C(NC(=O)Cn1nc(-c2ccc(Cl)cc2)n(Cc2ccccc2F)c1=O)c1ccccc1Cl)C(N)=O (racemic) : 17

Write down IC50 measured for item COC(=O)C(C)(C)NC(=O)C(NC(=O)Cn1nc(-c2ccc(Cl)cc2)n(C2CC2)c1=O)c1cccc(C(F)(F)F)c1 (racemic)
28

Write down IC50 measured for item CCOC(=O)C1(NC(=O)C(NC(=O)Cn2nc(-c3ccc(Cl)cc3)n(C[C@H](O)C(F)(F)F)c2=O)c2cccc(C(F)(F)F)c2)CC1 (stereo partly drawn)
9.2

====

Target: human V1a receptor (Homo sapiens, UniProt P37288)
Procedure Details: Cellular in vitro assay for determining the vasopressin receptor activity (aequorin luminescence, recombinant CHO cells), human V1a
Experimental Setup: CHO cells expressing aequorin, transfected with human V1a receptor; agonist [Arg8]-vasopressin; read-out: IC50 hV1a
pIC50: −log10 of the molar value.
I would appreciate it if you labelled entries fulfilled when pIC50 is 8 or higher, otherwise not fulfilled.

Example cases with answers are listed next.
NC(=O)CCNC(=O)C(NC(=O)Cn1nc(-c2ccc(Cl)cc2)n(C[C@H](O)C(F)(F)F)c1=O)c1cccc(C(F)(F)F)c1 (single isomer, unassigned) [Example 18] : fulfilled
CC(C)(NC(=O)C(NC(=O)Cn1nc(-c2ccc(Cl)cc2)n(C[C@H](O)C(F)(F)F)c1=O)c1cccc(C(F)(F)F)c1)C(=O)O (single isomer, unassigned) [Example 25] : not fulfilled
O=C(Cn1nc(-c2ccc(Cl)cc2)n(C[C@H](O)C(F)(F)F)c1=O)NC(C(=O)NC1(C(=O)O)CC1)c1cccc(C(F)(F)F)c1 (single isomer, unassigned) [Example 3] : not fulfilled
O=C(C[C@H](NC(=O)Cn1nc(-c2ccc(Cl)cc2)n(C[C@H](O)C(F)(F)F)c1=O)c1cccc(C(F)(F)F)c1)NCCO : fulfilled

Now let's try a different one.
Does pIC50 meet or surpass 8 for O=C(Cn1nc(-c2ccc(Cl)cc2)n(C[C@H](O)C(F)(F)F)c1=O)NC(C(=O)NCCO)c1cccc(C(F)(F)F)c1 (stereo partly shown) ?
fulfilled
